Assay: growth inhibition of DIPG cells – cell-based, MIPE5.0 library, qHTS (AID 1347068);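 for IC50: cells exposed to compound for 48 hours before viability readout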
Settings: SU-DIPG-XXV viability
Results filed as inconclusive are left out. Active and inactive are the calls of the source. No cut-off is given here; in the data, nearly all actives have IC50 up to about 30 µM.
Pick from t for active, f for inactive when you respond.

Solved entries (count: 5):
compound=CC1=C(CO)C(=O)O[C@@H]([C@@H](C)[C@H]2CC[C@H]3[C@@H]4C[C@H]5O[C@]56[C@@H](O)C=CC(=O)[C@]6(C)[C@H]4CC[C@]23C)C1 answer_label=t
compound=CN(CCOc1ccc(C[C@H](Nc2ccccc2C(=O)c2ccccc2)C(=O)O)cc1)c1ccccn1 answer_label=f
compound=CC[C@]12C=CCN3CC[C@@]4(c5cc([C@@]6(C(=O)OC)C[C@H]7C[C@@H](C(C)(F)F)CN(Cc8c6[nH]c6ccccc86)C7)c(OC)cc5N(C)[C@H]4[C@@](O)(C(=O)OC)[C@@H]1OC(C)=O)[C@@H]32 answer_label=t
compound=N#Cc1cc(NC(=O)Nc2nnc(-c3ccncc3)s2)ccc1-c1cn[nH]c1 answer_label=f
compound=O=C(O)c1ccccc1C(=O)Nc1ccc(-c2ccccc2)cc1 answer_label=f

Ask: Kindly provide the recorded test outcome for the following compound: COc1cc(Oc2ccnc3cc(OC)c(OC)cc23)ccc1NC(=O)NC(C)c1nccs1 (configuration not stated)
Result: f

Ask: Kindly provide the recorded test outcome for the following compound: `Nc1nc2[nH]cc(CCc3ccc(C(=O)N[C@@H](CCC(=O)O)C(=O)O)cc3)c2c(=O)[nH]1`
Result: f

Ask: Kindly provide the recorded test outcome for the following compound: `CN(Cc1ccc(/C=C/C(=O)NO)cc1)CC12CC3CC(CC(C3)C1)C2`
Result: t

Ask: Kindly provide the recorded test outcome for the following compound: `CC(=O)O[C@H]1C[C@@H]2CC[C@@H]3[C@H](CC[C@@]4(C)[C@H]3C[C@H]([N+]3(C)CCCCC3)[C@@H]4OC(C)=O)[C@@]2(C)C[C@@H]1[N+]1(C)CCCCC1`
Result: f

Ask: Kindly provide the recorded test outcome for the following compound: `C[C@@]1(C(=O)Nc2ccc(F)nc2)CCCN1c1nc(Nc2cc(C3CC3)[nH]n2)c2cccn2n1`
Result: t

----------
Experiment: growth inhibition, single agent and combos, cell-based, chromothripsis tumors, cisplatin or BGB combos (AID 1671450);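 note: cells exposed to compound for four days; 0% = vehicle DMSO and 100% = cell killing by high DMSO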
Conditions: HDN33 neuroblastoma cells, measured here: with BGB IC20 combination, at 0.5 µM, stronger effect = higher value
measured-attribute: inhibition (%)
Give the quantity in %, number only.

compound=CN(C)CCN1C(=O)c2cccc3cc(N)cc(c23)C1=O measured_attribute=inhibition reported_measurement=-27.7

`O=c1[nH]cnc2ccccc12` has a reported inhibition of 2.06

`CN(C)c1ccc(C(=O)NCCCCCCC(=O)NO)cc1` has a reported inhibition of 24.9

`CN[C@@H]1CN(c2ccc3c(=O)c(C(=O)O)cn(-c4nccs4)c3n2)C[C@H]1OC` has a reported inhibition of 48.4

`Cc1cn([C@@H]2O[C@H](CO)[C@@H](O)[C@@H]2F)c(=O)[nH]c1=O` has a reported inhibition of 25

`O=C(O)CO.[NH2-].[NH2-].[Pt+2]` has a reported inhibition of 3.13

----------
Assay: growth inhibition of DIPG cells – cell-based, MIPE4.0 library, CellTiter-Glo luminescence, qHTS (AID 1347066);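 note: cells exposed to compound for 48 hours before readout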
Details: SU-DIPG-VI viability, CellTiter-Glo ATP luminescence
Results filed as inconclusive are left out. Activity calls are given as the source filed them. Cut-off not given; nearly all actives show AC50 up to about 30 µM.
Pick from active, inactive when you respond.

Solved entries (count: 5):
compound=CN(C)C/C=C/C(=O)Nc1cc2c(Nc3ccc(F)c(Cl)c3)ncnc2cc1O[C@H]1CCOC1 answer_label=active
compound=CC(C)c1noc(N2CCC(COc3ccc(-c4ccc(S(C)(=O)=O)cc4)nc3)CC2)n1 answer_label=inactive
compound=Cc1cnc(Nc2ccc(N3CCN(C)CC3)cc2)nc1Nc1cccc(S(=O)(=O)NC(C)(C)C)c1 answer_label=active
compound="CN(C1CCc2c(c3ccccc3n2CC(=O)O)C1)S(=O)(=O)c1ccc(F)cc1 (centres undefined)" answer_label=inactive
compound=Cc1c(CCOc2ccc(C(=O)O)cc2)c2cc(Cl)ccc2n1C(c1ccccc1)c1ccccc1 answer_label=inactive

Ask: Kindly provide the recorded test outcome for the following compound: `COc1cc2c(cc1OC)CC(=O)N(CCCN(C)C[C@H]1Cc3cc(OC)c(OC)cc31)CC2`
Result: inactive

Ask: Kindly provide the recorded test outcome for the following compound: `Cc1cc(SCc2sc(-c3ccc(C(F)(F)F)cc3)nc2C)ccc1OCC(=O)O`
Result: inactive

Ask: Kindly provide the recorded test outcome for the following compound: `CC(C)(OCc1nn(Cc2ccccc2)c2ccccc12)C(=O)O`
Result: inactive

Ask: Kindly provide the recorded test outcome for the following compound: C[N+]1(C)[C@@H]2CC(OC(=O)C(O)(c3cccs3)c3cccs3)C[C@H]1[C@@H]1O[C@@H]12 (some centres undefined)
Result: inactive

Data origin: PubChem BioAssay
